assayed_target: Virion infectivity factor (Human immunodeficiency virus type 1 group M subtype B (isolate BH10)) + Virion infectivity factor (Human immunodeficiency virus type 1 group M subtype B (isolate BRU/LAI)) + Virion infectivity factor (Human immunodeficiency virus type 1 group M subtype B (isolate PCV12)) + Virion infectivity factor (Human immunodeficiency virus type 1 group M subtype B (isolate HXB2)) + DNA dC->dU-editing enzyme APOBEC-3G (Homo sapiens) (UniProt P69720+P69721+P69722+P69723+Q9HC16)
test_details: inhibitors of Vif binding to APOBEC3G peptide, primary screen, biochemical, TR-FRET, GST-Vif 1-94, biotin-A3G peptide, dose response retest (AID 1117319);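 also: Vif residues 1-94 fused to GST binding biotinylated APOBEC3G peptide 110-148; 0% = full assay without inhibitor and 100% = GST in place of GST-Vif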
condition_context: stronger effect = higher value
Screen size: about 260,000 compounds; about 1,500 (0.58%) were called active. About 5% were inconclusive and are not listed. The list is a sample of the results. Measured potencies and affinities stand elsewhere.
property: inhibition (%)

CC(C)c1ccc(S(=O)(=O)N2CCN(CC(=O)c3ccc(O)c(O)c3)CC2)cc1; 24.8
O=C(N/N=C/c1cc(Br)c(O)c(Br)c1)c1cccnc1; -0.54
O=C(Nc1ccccn1)C1CCN(S(=O)(=O)c2cccs2)CC1; -2.3
COc1cccc(CNc2ccc(F)c([N+](=O)[O-])c2)c1O; -12
CCOC(=O)c1cc2cc(OC)ccc2nc1C; 4.64
O=C(CCC(=O)N1CCN(c2ccccc2F)CC1)c1ccc(F)cc1; 0.58
CCNC(=O)c1cc2c(=O)n3cccc(C)c3nc2n(CCc2ccccc2)c1=N; -4.24
COc1ccc(CNC(=O)COC(=O)c2c(NC(C)=O)sc(C)c2C)cc1OC; 1.62
CC(C)c1ccccc1NC(=O)Cn1c(/C=C/c2ccccc2)nc2ccccc21; 2.28
CCOc1ccccc1C(=O)N[C@H](C(=O)Nc1ccc(OC)c(S(=O)(=O)N2CCOCC2)c1)C(C)C; -13.1

* * *

assayed_target: Virion infectivity factor (Human immunodeficiency virus type 1 group M subtype B (isolate BH10)) + Virion infectivity factor (Human immunodeficiency virus type 1 group M subtype B (isolate BRU/LAI)) + Virion infectivity factor (Human immunodeficiency virus type 1 group M subtype B (isolate PCV12)) + Virion infectivity factor (Human immunodeficiency virus type 1 group M subtype B (isolate HXB2)) + DNA dC->dU-editing enzyme APOBEC-3G (Homo sapiens) (UniProt P69720+P69721+P69722+P69723+Q9HC16)
test_details: inhibitors of Vif binding to APOBEC3G peptide, primary screen, biochemical, TR-FRET, GST-Vif 1-94, biotin-A3G peptide, dose response retest (AID 1117319);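 also: Vif residues 1-94 fused to GST binding biotinylated APOBEC3G peptide 110-148; 0% = full assay without inhibitor and 100% = GST in place of GST-Vif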
condition_context: stronger effect = higher value
Among all 260,000 compounds or so, about 1,500 (0.58%) were called active. Another 5% or so got no clear call; they are omitted. Only a sample is shown. Measured potencies and affinities stand elsewhere.
property: inhibition (%)

CS(=O)(=O)N(Cc1ccccc1)c1ccc(C(=O)NCc2ccccc2)cc1; 25
Cc1cc(/C=C2/NC(=O)N(c3ccccc3)C2=O)c(C)n1-c1cccnc1; 5.85
CN(C)CCNC(=O)Cn1nc(C(F)F)cc1C1CC1; 12.5
Cc1cccc(C)c1NC(=O)C1CCCN(CCCc2ccccc2)C1 (stereo not drawn); 3.24
O=C(NCCCn1ccnc1)C(=O)NCC1OCCN1S(=O)(=O)c1ccccc1 (stereo not drawn); 20.3
Cc1cc(C=C2C(=O)c3ccccc3C2=O)c(C)n1-c1cccc(C(=O)O)c1; 24.6
COc1cc(/C=C/c2ccc(O)cc2)cc(OC)c1; 0.21
COc1cc(O)cc(/C=C/c2ccccc2)c1; 6.25
O=C(O)c1ccc(NS(=O)(=O)c2cc(Cl)ccc2Cl)cc1O; 3.01
CSCCC(NC(=O)c1ccccc1Cl)C(=O)N1CCN(c2ccccn2)CC1 (stereo not drawn); -6.33
Cc1cccc(C(=O)N/N=C/c2cc(Br)c(Br)o2)c1; 0.73
CC(C)(C)OC(=O)N(CCc1ccccc1)Cc1ccccc1OCc1cccc(NC(=O)C2CCCC2)c1; 1.13
COc1cc2[nH]c3c(=O)n(N)c(=O)[nH]c3c2cc1OC; -6
COc1ccc(-c2nn(-c3ccccc3)cc2CNC[C@H]2O[C@@H](n3cnc(C(N)=O)n3)[C@H](O)[C@@H]2O)cc1; 12.8
Cc1nc2nc(C)c(CCC(=O)N3CCN(c4ccccn4)CC3)c(C)n2n1; 8.31
Cc1cc(NC(=O)Nc2ccc(F)cc2F)n(C)n1; -0.16
O=C(CC1C(=O)NCCN1Cc1ccccc1)NCCN1CCCCC1=O (stereo not drawn); 4.62
COc1ccc(C(=O)NCc2cccnc2)cc1Br; 7.76
O=C(CCN1C(=O)c2ccccc2C1=O)CN1CCOCC1; -9.57
NNC(=O)C1C(O)CCC2CN3CCc4c([nH]c5ccccc45)C3CC21 (stereo not drawn); -9.7
C[C@@H]1ON(C)[C@H]2C[C@H]3c4[nH]c5ccccc5c4CCN3C[C@@H]12; -1.4
COc1ccc(NC(=O)Nc2cccs2)cn1; 9.16
Cc1ccc(C(=O)N/N=C\c2ccc(-c3ccc(Cl)cc3)o2)cn1; 23.4

* * *

assayed_target: Virion infectivity factor (Human immunodeficiency virus type 1 group M subtype B (isolate BH10)) + Virion infectivity factor (Human immunodeficiency virus type 1 group M subtype B (isolate BRU/LAI)) + Virion infectivity factor (Human immunodeficiency virus type 1 group M subtype B (isolate PCV12)) + Virion infectivity factor (Human immunodeficiency virus type 1 group M subtype B (isolate HXB2)) + DNA dC->dU-editing enzyme APOBEC-3G (Homo sapiens) (UniProt P69720+P69721+P69722+P69723+Q9HC16)
test_details: inhibitors of Vif binding to APOBEC3G peptide, primary screen, biochemical, TR-FRET, GST-Vif 1-94, biotin-A3G peptide, dose response retest (AID 1117319);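 also: Vif residues 1-94 fused to GST binding biotinylated APOBEC3G peptide 110-148; 0% = full assay without inhibitor and 100% = GST in place of GST-Vif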
condition_context: stronger effect = higher value
Hit rate of the full screen: of about 260,000 compounds, about 1,500 (0.58%) were called active. About 5% were inconclusive and are not listed. Not all results are given here. Entries with a potency or affinity are not part of this list.
property: inhibition (%)

CCN(CC)/C(=N\S(=O)(=O)c1ccc(F)cc1)c1ccccc1; 3.32
N#CCCN(C(=O)COC(=O)c1cc(S(=O)(=O)N2CCOCC2)ccc1Cl)c1ccc(F)cc1; -1.91
Nc1nnnn1/N=C/c1cccc(O)c1; 9.19
COC(=O)CNc1ccc2c(c1)OCO2; 26.3
COc1cccc(NC(=O)N(C)C[C@H]2OCc3cnnn3CCCC(=O)N([C@H](C)CO)C[C@@H]2C)c1; -12.7
COc1ccc(C(=O)CSc2nnc(-c3ccco3)n2C)cc1; 7.51
Cc1cc(C)n(CC2CC(=O)N(c3ccc(Cl)cc3)C2=O)n1 (centres undefined); -0.66
COC(=O)c1ccccc1NC(=S)NC(=O)C1CC1; 0.95
N#C/C(=C/c1ccc(N2CCCCCC2)o1)c1ccc(Cl)cc1; 17.8
CCCn1c(SCC(=O)NC)nnc1C(C)C; 6.34
CCOc1ccccc1NC(=S)NCC1CCCO1 (centres undefined); -2.09
CCOC(=O)c1cnc2c(cnn2C)c1Cl; 6.51
Cc1ccc(C(=O)CSc2nnc(-c3ccco3)n2C)cc1; 11.4
COc1cc(NC(=O)c2cccc(Cl)c2)ccc1NC(=O)c1cccs1; 2.27
COc1ccc(N2C(=O)C3C4C=CC(C4)C3C2=O)c(OC)c1 (centres undefined); 1.91
Cc1ccc(S(=O)(=O)Cc2ccc(C(=O)NCc3cccs3)o2)cc1; 2.29
COC(=O)c1ccccc1NC(=S)NC(=O)C1CCCCC1; -4.52
O=C(Nc1cccc2c1[nH]c1ccccc12)C(F)(F)F; -2.08
Cc1cccc(C(=O)NNS(=O)(=O)c2ccc(F)cc2)c1; -1.42
COC(=O)N1CCN(c2ccc(C(C)=O)cc2)CC1; 5.12
C=CCN(C(=O)c1csnn1)C(C(=O)NC(C)(C)C)c1ccncc1 (centres undefined); 8.31
COc1cc(/C=C(\C#N)c2ccccn2)cc(OC)c1O; 7.21
CC(=O)SC1CC(=O)N(c2ccc(C(C)(C)C)cc2)C1=O (centres undefined); -11.1
O=C(COC(=O)/C=C/c1cccc(Br)c1)NCCC1=CCCCC1; 12.4

* * *

Measured inhibition, listed per entry for reference.
assayed_target: Virion infectivity factor (Human immunodeficiency virus type 1 group M subtype B (isolate BH10)) + Virion infectivity factor (Human immunodeficiency virus type 1 group M subtype B (isolate BRU/LAI)) + Virion infectivity factor (Human immunodeficiency virus type 1 group M subtype B (isolate PCV12)) + Virion infectivity factor (Human immunodeficiency virus type 1 group M subtype B (isolate HXB2)) + DNA dC->dU-editing enzyme APOBEC-3G (Homo sapiens) (UniProt P69720+P69721+P69722+P69723+Q9HC16)
test_details: inhibitors of Vif binding to APOBEC3G peptide, primary screen, biochemical, TR-FRET, GST-Vif 1-94, biotin-A3G peptide, dose response retest (AID 1117319);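 also: Vif residues 1-94 fused to GST binding biotinylated APOBEC3G peptide 110-148; 0% = full assay without inhibitor and 100% = GST in place of GST-Vif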
condition_context: stronger effect = higher value
The campaign covered roughly 260,000 compounds. About 1,500 (0.58%) were called active. Another 5% or so got no clear call; they are omitted. These entries were drawn from the full list. Results with a measured potency or affinity are listed apart.
property: inhibition (%)

O=C(Oc1cc(-c2ccccc2)no1)c1cccc(C(F)(F)F)c1; 12
COC(=O)c1cccc(-n2cnnn2)c1; 22.2
COc1ccc(C(=O)COC(=O)c2cccc(-n3cnnn3)c2)c(OC)c1; 3.56
Cc1ccccc1-n1nc2c(c1NC(=O)c1ccc(Br)o1)CSC2; 17.6
O=[N+]([O-])c1ccc2nc(CN3CCCCC3)[nH]c2c1; -2.67
O=c1c2cn[nH]c2[nH]c(=S)n1-c1ccccc1F; -1.23
O=C(N/N=C\c1cccnc1)c1ccccc1O; -5.54
COc1ccc(C(=O)N/N=C/c2c(CO)cnc(C)c2O)cc1; 8.42
Nc1ccc(C(=O)C(=O)c2ccc(N)cc2)cc1; -4.86
CN(C)S(=O)(=O)c1ccc(C(=O)OCC(=O)Nc2ccc(OC(F)F)cc2)cc1; -3.03
COCCN(Cc1ccc(C)c(Br)c1)C(=O)Cn1cnc(S(=O)(=O)N2CCCC2)c1; 27.4
Nc1ccc(C(=O)NCCCCCCNC(=O)c2ccc(N)cc2)cc1; -3.48
CCOC(=O)N1CCN(CC(=O)Nc2ccc(OC)cc2)CC1; -0.76
O=C(OCC(=O)c1cccs1)c1ccc(NC(=O)c2ccco2)cc1; 13.8
O=C(O)c1ccccc1C(=O)Nc1ccc(-n2nccc2C(F)(F)F)cc1; -1.72
CN(C)S(=O)(=O)c1cc(NC(=O)[C@H](Cc2ccccc2)N2C(=O)c3ccccc3C2=O)ccc1Cl; 15.5
COc1ccc(NC(=O)CN(C)C(=O)CSc2nc3ccccc3s2)cc1; -0.85
O=C(O)/C(=C\c1cccc(F)c1)c1ccc(S(=O)(=O)N2CCCC2)s1; 18.6
O=C(O)/C(=C\c1cccc(O)c1)c1ccc(S(=O)(=O)N2CCCC2)s1; 14.8
CCCC(C)NC(=O)c1ccc(-c2ccccc2)cc1 (stereo not drawn); -5.95
CCOc1ccc(NC(=O)CN2CCN(CC(=O)Nc3ccc(C(N)=O)cc3)CC2)cc1; -3.98
Cc1ccccc1C(=O)O/N=C1\CCS(=O)(=O)c2sccc21; 1.21
O=C(N/N=C/c1cccnc1)c1ccccc1; -11.7

// provenance: PubChem BioAssay AID1117319
